- Measurement Target: T1, human Scribble (SCRIB) PDZ4 domain (residues 1099-1203) (human, UniProt Q14160 1099-1203)
- T1 sequence (looked up): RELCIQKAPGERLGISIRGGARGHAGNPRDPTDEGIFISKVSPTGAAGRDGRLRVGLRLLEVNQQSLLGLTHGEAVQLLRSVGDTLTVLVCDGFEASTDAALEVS
- Protocol: ITC
- Run Conditions: both partners purified
Result Type: Kd (µM)
Use µM as the unit, but write only the number.

-- ask Kd for KMARTIESEV [NS1 ESEV PBM peptide KMARTIESEV (H5N1 A/Viet Nam/1194/2004), 10-mer] ?
-- reply 12.2

Source: paper PMC8954747
